System: MDA-N
Assay: NCI tumour cell line growth inhibition, 48 h
Below, each of the molecules is paired with its reported TGI value.

- MOLECULE: "CCOC(=O)/C=C1\\c2ccccc2C(=O)N1CC(=O)OCC"
  SUBJECT OF TEST: "MDA-N"
  RELATION OPERATOR: ">"
  TGI, µM: 100
- MOLECULE: "O=C1c2c(O)cc(O)cc2OC(c2ccc(O)cc2O)C1O (stereo not given)"
  SUBJECT OF TEST: "MDA-N"
  RELATION OPERATOR: ">"
  TGI, µM: 100
- MOLECULE: "C=CCOC(=O)[C@@H]1C[C@@H](OC(C)(C)C)CN1C(=O)[C@@H]1[C@H]2OC(C)(C)O[C@H]2CN1C(=O)OCC1c2ccccc2-c2ccccc21"
  SUBJECT OF TEST: "MDA-N"
  RELATION OPERATOR: "="
  TGI, µM: 33.4
- MOLECULE: "C/C=C/C(=O)N1C(=O)OC[C@@H]1c1ccccc1"
  SUBJECT OF TEST: "MDA-N"
  RELATION OPERATOR: "="
  TGI, µM: 43.8
- MOLECULE: "O=C(O)c1oc(C(=O)O)c(C(=O)O)c1C(=O)O"
  SUBJECT OF TEST: "MDA-N"
  RELATION OPERATOR: ">"
  TGI, µM: 100

Origin of values: PubChem BioAssay (NCI)
